- study-system: T1, human adenosine A2A receptor (A2aR) (human, UniProt P29274 1-412)
- T1 construct: Assays used HEK293 cells stably overexpressing human A2aR (BPS Bioscience 79381), human A2aR-expressing CHO cells, or endogenous A2aR on human PBMC; also called human A2aR; hA2aR
- T1 sequence (P29274 whole entry): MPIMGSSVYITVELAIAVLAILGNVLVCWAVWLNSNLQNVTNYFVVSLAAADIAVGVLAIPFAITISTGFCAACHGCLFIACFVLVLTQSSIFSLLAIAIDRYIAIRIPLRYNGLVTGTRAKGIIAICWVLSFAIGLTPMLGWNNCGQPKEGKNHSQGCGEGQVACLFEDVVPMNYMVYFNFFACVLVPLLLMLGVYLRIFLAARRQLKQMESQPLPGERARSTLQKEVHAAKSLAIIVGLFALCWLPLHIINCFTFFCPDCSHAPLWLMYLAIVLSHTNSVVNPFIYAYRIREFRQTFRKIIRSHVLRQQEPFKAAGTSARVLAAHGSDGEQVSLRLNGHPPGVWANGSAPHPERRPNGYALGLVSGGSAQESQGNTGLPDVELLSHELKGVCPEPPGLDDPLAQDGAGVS
- assay-explanation: flow cytometry titration, HEK293-hA2aR cells, purified antibody
pEC50: −log10 of the molar value.

[
  {
    "binder": "Hu3F6-H2/Hu3F6-L4 (antibody, human IgG1, V domains shown, Human IgG1 FES (L234F, L235E, P331S) and human Ig kappa constant domains; also called Hu3F6 VH2/VL4) VH: EVQLVQSGAEVKKPGASVKVSCKTSGFAFTSYWMNWVRQAPGQGLEWMGRIDPSDSEAHYHHKFWGRVTMTVDTSTSTVYMELSSLRSEDTAVYYCLRSLYGKGDYWGHGTTVTVSS VL: DIVMTQTPLSLSVTPGQPASISCRSSQSLVHRNGNTYLEWYLQKPGQSPQLLIYKVSNRFSGVPDRFSGSGSGTDFTLKISRVEAEDVGVYYCYQGSHVPLTFGGGTKVEIK",
    "pEC50": 9.17
  },
  {
    "binder": "Hu3F8-H2/Hu3F8-L5 (antibody, human IgG1, V domains shown, Human IgG1 FES (L234F, L235E, P331S) and human Ig kappa constant domains; also called Hu3F8 VH2/VL5) VH: EVQLVQSGAEVKKPGASVKVSCKASGFTFTRYWMNWVRQAPGQGLEWMGRIDPSDSETHYNHKFWGRVTMTVDTSTSTVYMELSSLRSEDTAVYYCLRSLYGKGDYWGQGTTVTVSS VL: DVVMTQSPLSLPVTPGEPASISCRSSQSIVHSNGNTYLEWYLQKPGQSPQLLIYKVSNRFSGVPDRFSGSGSGTDFTLKISRVEAEDVGVYYCYQGSHVPLTFGGGTKVEIK",
    "pEC50": 9.05
  },
  {
    "binder": "Hu3F8-H5.1/Hu3F8-L3 (antibody, human IgG1, V domains shown, Human IgG1 FES (L234F, L235E, P331S) and human Ig kappa constant domains; also called Hu3F8 VH5.1/VL3) VH: EVQLVQSGAEVKKPGASVKVSCKASGFTFTRYWMNWVRQAPGQGLEWIGRIDPSDSETHYAHKFWGRATLTVDKSTSTVYMELSSLRSEDTAVYYCLRSLYGKGDYWGQGTTVTVSS VL: DVVMTQSPLSLPVTLGQPASISCRSSQSIVHSNGNTYLEWYQQRPGQSPRLLIYKVSNRFSGVPDRFSGSGSGTDFTLKISRVEAEDVGVYYCYQGSHVPLTFGGGTKVEIK",
    "pEC50": 9.21
  },
  {
    "binder": "Hu3F6-H2/Hu3F6-L8 (antibody, human IgG1, V domains shown, Human IgG1 FES (L234F, L235E, P331S) and human Ig kappa constant domains; also called Hu3F6 VH2/VL8) VH: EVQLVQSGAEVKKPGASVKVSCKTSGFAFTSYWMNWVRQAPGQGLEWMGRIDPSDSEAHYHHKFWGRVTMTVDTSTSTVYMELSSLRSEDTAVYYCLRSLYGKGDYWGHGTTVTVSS VL: DVVMTQSPLSLPVTPGEPASISCRSSQSLVHRNGNTYLEWYLQKPGQSPQLLIYKVSNRFSGVPDRFSGSGSGTDFTLKISRVEAEDVGVYYCYQGSHVPLTFGGGTKVEIK",
    "pEC50": 9.12
  },
  {
    "binder": "Hu3F8-H5.1/Hu3F8-L5 (antibody, human IgG1, V domains shown, Human IgG1 FES (L234F, L235E, P331S) and human Ig kappa constant domains; also called Hu3F8 VH5.1/VL5) VH: EVQLVQSGAEVKKPGASVKVSCKASGFTFTRYWMNWVRQAPGQGLEWIGRIDPSDSETHYAHKFWGRATLTVDKSTSTVYMELSSLRSEDTAVYYCLRSLYGKGDYWGQGTTVTVSS VL: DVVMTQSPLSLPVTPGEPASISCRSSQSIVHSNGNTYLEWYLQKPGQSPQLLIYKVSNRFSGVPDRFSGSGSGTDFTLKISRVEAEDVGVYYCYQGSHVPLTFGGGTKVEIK",
    "pEC50": 9.16
  }
]

Cited source: patent US20250206828A1
